# ASSAY_SYSTEM: human Nav1.8 sodium channel (Homo sapiens)
# Sequence (Q9Y5Y9 whole entry): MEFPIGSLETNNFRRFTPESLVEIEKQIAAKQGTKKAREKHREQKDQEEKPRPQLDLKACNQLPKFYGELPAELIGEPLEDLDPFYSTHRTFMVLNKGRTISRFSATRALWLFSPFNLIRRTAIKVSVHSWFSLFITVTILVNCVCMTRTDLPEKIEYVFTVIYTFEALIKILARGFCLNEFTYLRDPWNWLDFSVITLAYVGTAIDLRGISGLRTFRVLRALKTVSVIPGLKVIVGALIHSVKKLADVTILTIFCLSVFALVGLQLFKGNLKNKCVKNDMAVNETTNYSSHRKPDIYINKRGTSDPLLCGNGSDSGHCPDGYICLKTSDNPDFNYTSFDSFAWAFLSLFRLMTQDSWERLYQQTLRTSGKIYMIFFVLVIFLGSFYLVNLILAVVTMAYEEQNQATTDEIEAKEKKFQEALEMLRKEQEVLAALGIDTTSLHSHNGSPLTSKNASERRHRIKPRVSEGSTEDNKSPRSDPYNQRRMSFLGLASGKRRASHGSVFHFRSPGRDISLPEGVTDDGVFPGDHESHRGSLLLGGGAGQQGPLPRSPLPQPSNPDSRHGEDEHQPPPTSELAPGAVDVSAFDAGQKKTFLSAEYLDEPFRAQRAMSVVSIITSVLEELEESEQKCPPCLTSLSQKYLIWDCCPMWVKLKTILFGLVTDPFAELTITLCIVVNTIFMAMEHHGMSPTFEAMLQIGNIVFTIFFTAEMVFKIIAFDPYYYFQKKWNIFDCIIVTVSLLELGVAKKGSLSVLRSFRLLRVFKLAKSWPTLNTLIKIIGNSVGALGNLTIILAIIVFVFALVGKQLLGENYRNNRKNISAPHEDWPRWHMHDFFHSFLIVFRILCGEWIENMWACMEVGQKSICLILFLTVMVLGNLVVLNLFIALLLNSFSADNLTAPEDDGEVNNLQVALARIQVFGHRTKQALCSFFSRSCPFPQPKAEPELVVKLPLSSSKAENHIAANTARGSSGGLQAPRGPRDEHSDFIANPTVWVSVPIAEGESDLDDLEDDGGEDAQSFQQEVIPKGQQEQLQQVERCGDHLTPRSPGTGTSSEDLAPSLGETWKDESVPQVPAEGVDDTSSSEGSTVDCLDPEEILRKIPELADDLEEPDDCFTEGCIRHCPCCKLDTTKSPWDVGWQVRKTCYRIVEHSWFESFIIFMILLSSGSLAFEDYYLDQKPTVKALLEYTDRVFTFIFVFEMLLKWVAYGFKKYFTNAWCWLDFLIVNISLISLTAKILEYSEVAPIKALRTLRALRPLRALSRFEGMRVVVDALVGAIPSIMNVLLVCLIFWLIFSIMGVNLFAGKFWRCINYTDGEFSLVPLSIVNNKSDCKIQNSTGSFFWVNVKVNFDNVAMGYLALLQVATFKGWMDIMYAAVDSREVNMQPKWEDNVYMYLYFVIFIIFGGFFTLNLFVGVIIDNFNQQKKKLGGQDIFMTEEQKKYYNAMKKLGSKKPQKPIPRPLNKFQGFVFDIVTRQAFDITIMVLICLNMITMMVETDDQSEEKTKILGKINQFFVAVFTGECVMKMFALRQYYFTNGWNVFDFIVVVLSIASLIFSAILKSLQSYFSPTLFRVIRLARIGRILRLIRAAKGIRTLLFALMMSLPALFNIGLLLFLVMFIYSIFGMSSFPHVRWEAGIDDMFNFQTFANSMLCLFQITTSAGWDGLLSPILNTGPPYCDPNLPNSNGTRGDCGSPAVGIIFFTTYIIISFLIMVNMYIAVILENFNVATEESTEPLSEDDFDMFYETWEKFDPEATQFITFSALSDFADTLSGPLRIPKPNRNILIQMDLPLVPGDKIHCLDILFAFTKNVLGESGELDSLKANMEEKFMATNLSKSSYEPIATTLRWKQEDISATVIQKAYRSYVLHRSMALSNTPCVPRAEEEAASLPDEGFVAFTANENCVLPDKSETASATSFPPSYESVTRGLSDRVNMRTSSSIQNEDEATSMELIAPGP
# EXPERIMENTAL_DETAILS: Blocking activity on sodium channel 1.8 (Nav1.8), whole-cell manual patch clamp
# Format: cell-based
# CONDITION_DESCRIPTION: read-out: inhibition Percent @30 nM, 30 nM compound
Would you kindly list inhibition at 0.03 µM for each of these compounds?
Numbers only, in %.

As a guide, the following entries are already answered.
> print(dat)
                                     smiles                              assay.system  observed.result
1  Cc1nc(N2CCCC(F)(F)CC2)c(C(=O)Nc2cccc(C(=O)NC(=N)N)c2)cc1Cl  human Nav1.8 sodium channel (Homo sapiens)               90
2  Cc1nc(N2CCCC(F)(F)CC2)c(C(=O)Nc2ccc(F)c(C(=O)O)c2)cc1Cl  human Nav1.8 sodium channel (Homo sapiens)               33
3  Cc1nc(N2CCCCCC2)c(C(=O)Nc2cccc(C(=N)N)c2)cc1Cl  human Nav1.8 sodium channel (Homo sapiens)               95

If you can, please state the reported inhibition at 0.03 µM value of `Cc1nc(N2CCCC(F)(F)CC2)c(C(=O)Nc2ccc(F)c(C(=O)NC(=N)N)c2)cc1Cl` .
99

----------
Would you kindly list log10(AUC(0-t)) for each of these compounds?
# EXPERIMENTAL_DETAILS: In vivo pharmacokinetics in rats, single intravenous injection or oral gavage
# CONDITION_DESCRIPTION: male, SD, plasma; Rat, oral gavage, 5mg/kg
# Experimental: The in vivo pharmacokinetics in rats were evaluated via a single intravenous injection or oral gavage administration in this test example. • 1. […] Pharmacokinetic parameters in rat/mouse plasma were calculated for both administration routes, and the bioavailability of each compound in rats was also calculated. […]
Hey, these are logged values: log10 of AUC(0-t), ng·h/mL being the unit before logging.

As a guide, the following entries are already answered.
> print(dat)
                                   compound  observed.result
1  NC(=NO)c1cc(NC(=O)c2cc(Cl)c(C(F)(F)F)nc2N2CCCC(F)(F)CC2)ccc1F             3.64
2  CC(C)c1nc(N2CCCC(F)(F)CC2)c(C(=O)Nc2ccc(F)c(C(N)=NO)c2)cc1Cl             3.29
3  NC(=NO)c1cc(NC(=O)c2cc(Cl)c(C(F)(F)F)cc2N2CCCC(F)(F)CC2)ccc1F             3.94
4  COc1c([C@H]2[C@H](C(=O)Nc3ccnc(C(N)=O)c3)O[C@@](C)(C(F)(F)F)[C@H]2C)ccc(F)c1F [VX-548, reference compound]             2.71

Okay, next one:
If you can, please state the reported log10(AUC(0-t)) value of `Cc1nc(N2CCCC(F)(F)CC2)c(C(=O)Nc2ccc(F)c(C(N)=NC#N)c2)cc1Cl` .
3.25

----------
# EXPERIMENTAL_DETAILS: In vivo pharmacokinetics in rats, single intravenous injection or oral gavage
# CONDITION_DESCRIPTION: male, SD, plasma; Rat, oral gavage, 10mg/kg
Would you kindly list half-life for each of these molecules?
Numbers only, in h.

> print(dat)
                                   molecule  observed.result
1  Cc1nc(N2CCCC(F)(F)CC2)c(C(=O)Nc2ccc(F)c(C(N)=NO)c2)cc1Cl             1.49

Okay, next one:
If you can, please state the reported half-life value of Cc1cc(F)ccc1Oc1cc(C(F)(F)F)ccc1C(=O)Nc1cc[nH]c(=O)c1 [VX-150, reference compound] .
2.88

These data points were gathered from patent EP4700018A1.
